Cited source for all entries: patent US8148577B2

- Tested on: H157 (non-small cell lung carcinoma) cells
- method: 96 hr MTS dose response experiment in H157 cells
- Assay type: cell-based, human
- experimental-setup: Homo sapiens, NCI-H157, 96 hr exposure, a range means IC50 lies between the two tested concentrations
Listed here: items and their measured IC50.

| molecule | subject-of-test | IC50 |
| --- | --- | --- |
| CCNCCCNCCCCCNCCCNCC(C)CC (centres unmarked) | H157 (non-small cell lung carcinoma) cells | 10 to 50 µM |
| CC(CCNCCCNCCC(C)NCc1cc(F)c(F)cc1F)NCc1cc(F)c(F)cc1F (centres unmarked) | H157 (non-small cell lung carcinoma) cells | > 31 µM |
| CCNCCCNCCCCCNCCCN | H157 (non-small cell lung carcinoma) cells | 1 to 5 µM |
| C=C(C)NCCCNCCCNCCCNCC | H157 (non-small cell lung carcinoma) cells | 1 to 10 µM |
| C=C(CNCCCNCC)CNCCCNCC | H157 (non-small cell lung carcinoma) cells | > 13 µM |
| CC(C)(C)CCNCCCNCCCNCCCNCC(F)(F)F | H157 (non-small cell lung carcinoma) cells | 5.3 to 26.5 µM |
| CCNCCCN(CCCNCC)CCCNCC [55-DHEJ-31C] | H157 (non-small cell lung carcinoma) cells | > 50 µM |
| CC(C)CNCCCNCCCNCCCNCC(C)C [DG-52-29C] | H157 (non-small cell lung carcinoma) cells | > 50 µM |
| O=C(NCCCNCCCNCCCNC(=O)c1nc2ccccc2[nH]1)c1nc2ccccc2[nH]1 [44-DHEJ-40C] | H157 (non-small cell lung carcinoma) cells | > 26.1 µM |
| C=C(C)NCCCNCCCNCCCNC(=C)C | H157 (non-small cell lung carcinoma) cells | > 10 µM |
| CCCCNC(C)CCNCCCCCCCNCCC(C)NCC (centres unmarked) [51-DHEJ-49C] | H157 (non-small cell lung carcinoma) cells | > 50 µM |

----------
- System: H157 (non-small cell lung carcinoma) cells
- method: 96 hr MTS dose response experiment in H157 cells
- Type: cell-based, human
- experimental-setup: Homo sapiens, NCI-H157, 96 hr exposure, a range means IC50 lies between the two tested concentrations
pIC50: −log10 of the molar value.

| molecule | subject-of-test | pIC50 |
| --- | --- | --- |
| COc1cc(C(C)(C)C)c(C(C)(C)C)cc1CNC(C)CCNCCCNCCC(C)NCc1cc(C(C)(C)C)c(C(C)(C)C)cc1OC (centres unmarked) [51-DHEJ-8] | H157 (non-small cell lung carcinoma) cells | < 4.30 |
| CCNCCCNCCCNCCCCN [YZ33046] | H157 (non-small cell lung carcinoma) cells | < 5.00 |
| CC1(C)C2CCC(CNCCCNCCCNCCCN)C1C2 (centres unmarked) [ZQW-35c] | H157 (non-small cell lung carcinoma) cells | 5.00 to 6.00 |
| CCNCCCNCCCCC(C)NCCCNCC (centres unmarked) [55-DHEJ-24C] | H157 (non-small cell lung carcinoma) cells | < 4.30 |
| CCNCCCNCCCNCCC(C)NCC1CC1 (centres unmarked) [55-DHEJ-37C] | H157 (non-small cell lung carcinoma) cells | < 4.30 |

----------
- Tested on: H157 (non-small cell lung carcinoma) cells
- method: 96 hr MTS dose response experiment in H157 cells
- Assay type: cell-based, human
- experimental-setup: Homo sapiens, NCI-H157, 96 hr exposure, a range means IC50 lies between the two tested concentrations
Listed here: items and their measured IC50.

| molecule | IC50 |
| --- | --- |
| N=C(NCCCNCCCCCCCNCCCNC(=N)NC(=N)NCCC(c1ccccc1)c1ccccc1)NC(=N)NCCC(c1ccccc1)c1ccccc1 [XBI-54-13B] | 10 to 50 µM |
| c1ccc(-c2ccccc2CNCCCNCCCNCCCNCc2ccccc2-c2ccccc2)cc1 | 0.53 to 2.7 µM |
| N=C(NCCCNCCCCNCCCNC(=N)NC(=N)NCC(c1ccccc1)c1ccccc1)NC(=N)NCC(c1ccccc1)c1ccccc1 [XBI-54-14B] | 10 to 50 µM |
| CCNCCCNCCCNCCCNC(C)CC (stereo not drawn) [DG-52-27C] | 0.5 to 1 µM |
| CCNCCCNCCCNCCCNCC1CCC2CC1C2(C)C (stereo not drawn) | 1 to 10 µM |
| C/N=C(\NC)NCCCNCCCNCCCN/C(=N/C)NC | 5 to 10 µM |
| CCCCNCCCCNCCCCNCCCNCC [YZ33049c] | 1 to 10 µM |
| CNC(=N)NCCCNCCCCCCCNCCCNC(=N)NC | 5 to 10 µM |
| CC(N)CCNCCCNCc1ccc(-c2ccccc2)cc1 (stereo not drawn) | > 50 µM |
| O=C(CCc1nc2ccccc2[nH]1)NCCCNCCCNCCCNC(=O)CCc1nc2ccccc2[nH]1 | 21.9 µM |
| N=C(NCCCNCCCNCCCNC(=N)NC(=N)NCC(c1ccccc1)c1ccccc1)NC(=N)NCC(c1ccccc1)c1ccccc1 [XBI-54-12C] | 10 to 50 µM |
| c1cc2ccc3cccc4c(CCCCNCCCNCCCNCCCNCCCCc5cc6cccc7ccc8cccc5c8c76)cc(c1)c2c34 [40-TDW-26c] | 10 to 50 µM |
| NCCCCCCNCCCCCCNCCCc1nc2ccccc2[nH]1 | > 50 µM |
| CCNCCCCCNCCCNCCCNCC | > 50 µM |
| CCNCCCNCCCNCCCCNCC1CC1 | ~1 µM |
| N=C(NCCCNCCCCCCCNCCCNC(=N)Nc1ccccc1)Nc1ccccc1 | 50 µM |
| CCNCCCNCCCNCCCCCN | > 50 µM |
| CCNCCCNCCCCCNCCCNCC [44-DHEJ-48C] | > 50 µM |
| N=C(NCCCNCCCCNCCCNC(=N)NCCC(c1ccccc1)c1ccccc1)NCCC(c1ccccc1)c1ccccc1 | > 50 µM |
| N=C(NCCCNCCCCNCCCNC(=N)NCC(c1ccccc1)c1ccccc1)NCC(c1ccccc1)c1ccccc1 | > 50 µM |
| CCNCCCCNCCCNCCCNCC [YZ33050c] | ~1 µM |
| CCC(CC)CNCCCCNCCCNCC(CC)CC | > 50 µM |
| N=C(NCCCNCCCCNCCCNC(=N)NC(=N)NCCC(c1ccccc1)c1ccccc1)NC(=N)NCCC(c1ccccc1)c1ccccc1 [XBI-54-13D] | 10 to 50 µM |
| C=C(CNCC)CNCCCNCCCNCC | 13 µM |
| CC(CCNCCCCCCCNCCC(C)NCC(F)(F)F)NCC(F)(F)F (stereo not drawn) | 10 to 50 µM |
| C=C(C)NCCCNCCCNCCCN | > 10 µM |
| CCNCCCNCCCNCCCNCc1ccccc1-c1ccccc1 [39-TDW-20c] | 2.76 to 5.52 µM |
| Fc1cc(F)c(CNCCCNCCCNCCCNCc2cc(F)c(F)cc2F)cc1F [44-DHEJ-10C] | > 29 µM |
| CCNCCCNCCCNCCC(C)N (stereo not drawn) | > 50 µM |
| CCNCCCNCCCCNCCC(c1ccccc1)c1ccccc1 [42-TDW-40c] | 5 to 10 µM |
| NCCCCCNCCCNCCCNCCCCCN | > 10 µM |
| CCNCCCNCCCNCCCNC(C)C | 1 µM |
| CC(CCNCCCNCCC(C)NCC1CC1)NCC1CC1 (stereo not drawn) [55-DHEJ-35C] | 10 to 50 µM |
| N=C(NCCCNCCCNCCCNC(=N)Nc1ccccc1)Nc1ccccc1 | 5 to 10 µM |
| CC1(C)C2CCC(CNCCCNCCCNCCCNCC3CCC4CC3C4(C)C)C1C2 (stereo not drawn) | 1 to 10 µM |
| N=C(NCCCNCCCCCCCNCCCNC(=N)NC(=N)NCC(c1ccccc1)c1ccccc1)NC(=N)NCC(c1ccccc1)c1ccccc1 [XBI-54-11C] | 10 to 50 µM |
| N=C(NCCCNCCCNCCCNC(=N)NC(=N)NCCC(c1ccccc1)c1ccccc1)NC(=N)NCCC(c1ccccc1)c1ccccc1 [XBI-54-12D] | 10 to 50 µM |
| NCCCCCNCCCNCCCNCCCCN | > 10 µM |
| CNC(=N)NCCCNCCCNCCCNC(=N)NC | 10 to 50 µM |
